- System: SK-MEL-2 melanoma
- measurement_notes: NCI-60 one-dose screen, 48 h (100 = growth as untreated, 0 = no growth, -100 = all killed)
- reported_conditions: 10 µM
The panel holds about 83,000 compounds, 20% with a hit somewhere; the sample as a whole holds those more often. Calls of active or inactive are those of the source. Rule for the calls: active = growth percent below 10; inactive = the rest.
Entries and their measured growth follow.

CC1=C2C(=O)[C@](C)(CO)C=C2C(=O)[C@](C)(O)C12CC2 | -35.6% (active)
CC1=C2C(=C[C@@](C)(C=O)[C@@H]2O)C(=O)[C@](C)(O)C12CC2 | -37.8% (active)
CC(C)(O)/C=C/C(=O)[C@](C)(O)[C@H]1[C@H](O)C[C@@]2(C)[C@H]3CC=C4[C@@H](C[C@H](O)C(=O)C4(C)C)[C@]3(C)C(=O)C[C@]12C | -28.2% (active)

Lab note: next compound to report on.
IN: # input compound: `COc1cc(OC)c(S(=O)(=O)N(CCCl)CCCl)cc1C(=O)/C=C/c1ccc(Cl)cc1` ; wanted: its growth
OUT: 93% (inactive)

====

- Tested on: HL-60(TB) leukemia
- measurement_notes: NCI-60 one-dose screen, 48 h (100 = growth as untreated, 0 = no growth, -100 = all killed)
- reported_conditions: 10 µM unless noted
About 83,000 compounds went through this panel and 20% of them were active in at least one assay; those are over-represented in the sample as a whole.
Would you please tag the item criterion met when its growth is 60% or above, and criterion not met when it is below?

Cc1csc(/N=C(N)/N=C(\N)c2cccs2)n1 | criterion met
Cn1ncc2c(C(=O)c3ccc(F)cc3)nc(C(C)(C)C)nc21 | criterion met
CNc1sc(S(=O)(=O)NC)nc1S(=O)(=O)c1ccc(C)cc1 | criterion met

IN: Reported growth at or above 60%? `CC(C)C[C@H]1C(=O)O[C@H](C(C)C)C(=O)N(C)[C@@H](C(C)C)C(=O)O[C@H](C(C)C)C(=O)N(C)[C@@H](C(C)C)C(=O)O[C@H](C(C)C)C(=O)N1C`
OUT: criterion not met

IN: Can `N#Cc1c(NC(=O)c2ccccc2C(F)(F)F)sc2c1CCC(=O)C2` be said to have growth at or above 60%?
OUT: criterion not met

IN: In plain terms: is recorded growth at least 60% for `O=C1c2c(c3c4cc(O)ccc4oc3c3[nH]c4ccccc4c23)C(=O)N1O` ?
OUT: criterion not met

IN: Is growth at least 60%? Consider `O=C(/C=C/c1csc(Br)n1)NO`
OUT: criterion not met

====

- Test system: HL-60(TB) leukemia
- measurement_notes: NCI-60 one-dose screen, 48 h
- reported_conditions: 10 µM unless noted
Compounds without any hit were thinned out: in the full panel of roughly 83,000, 20% have a hit. Active and inactive are the calls of the source. The calls were made as follows: active = growth percent below 10; inactive = the rest.
Your answer must be one of the following: 1.0 = active, 0.0 = inactive

C#C[C@]1(O)CC[C@H]2[C@@H]3CC=C4c5sc(-c6cccc(F)c6)nc5CC[C@]4(C)[C@H]3CC[C@@]21C | 0.0
O=C(C[n+]1ccnc2ccccc21)c1ccc(O)c(O)c1 | 1.0
CCOC(=O)C1=C(C)Nc2nc3ccccc3n2C1c1ccccc1 (stereo unspecified) | 0.0
COC[C@@]1(C)CC[C@]2(C)CC[C@]3(C)C(=CC[C@@H]4[C@@]5(C)CCCNC(C)(C)[C@@H]5CC[C@]43C)C2C1 (stereo partly specified) | 0.0
COCCC[C@H]1O[C@@](O)([C@H](C)[C@@H]2CC(OC)C(O)/C=C(C)/C=C(C)/C=C(\C)C(OC3O[C@@H](C)[C@H](O)C(O)[C@@H]3O)C(C)/C=C(C)/C=C(OC)/C=C(\C)C(=O)O2)C(OC)C(O)[C@]1(C)O[C@H]1C[C@@H](O)[C@H](O[C@H]2C[C@](C)(O)[C@H](O)C(C)O2)C(C)O1 (stereo partly specified) | 0.0

IN: Check the results log: what was the call for `Cc1ccc2c(n1)C(=O)C(Cl)=C(Nc1ccc(C(=O)OC(C)(C)C)cc1)C2=O` ?
OUT: 1.0

IN: Call for entry `O=C(/C=C/c1cccc(F)c1)c1cccc(OCCCOc2cccc(C(=O)/C=C/c3cccc(F)c3)c2)c1` :
OUT: 0.0

IN: What is the recorded call for this molecule in the test? `O=C(CCCCCCN1CC(=O)N2[C@@H](C3CC3)c3[nH]c4ccccc4c3C[C@H]2C1=O)NO`
OUT: 0.0

IN: For `CC1(COc2ccc3ncc(C#Cc4cncc(C(=O)Nc5cccc(C(F)(F)F)c5)c4)n3n2)COC1` , what call appears in the results of this test?
OUT: 0.0

IN: What did this assay record as the result for `CCn1c(SCC(=O)Nc2cccc(C(=O)/C=C/c3ccc(Br)cc3)c2)nc2ccccc2c1=O` ?
OUT: 0.0

IN: Name the outcome recorded for `C#C[C@]1(O)CC[C@H]2[C@@H]3CC=C4c5sc(Nc6cc(Cl)ccn6)nc5CC[C@]4(C)[C@H]3CC[C@@]21C` in the assay.
OUT: 1.0

IN: Recorded test outcome, item `Nc1ccccc1NC(=O)c1ccc(NC(=O)C/C=C/c2cccnc2)cc1`
OUT: 0.0

IN: Name the outcome recorded for `O=C(Nc1ccc2c(ccn2Cc2ccccn2)c1)c1cnccn1` in the assay.
OUT: 0.0

IN: Could you kindly confirm the outcome this assay logged for COc1ccc(/C=N\NC(=O)c2cnn(CC(O)c3ccccc3)c2N)cc1OCc1ccc(Cl)cc1 (stereo unspecified) ?
OUT: 0.0

IN: Can you look up the reported call for `O=C(COc1ccc(/C=C2\C(=O)Nc3ccc(Cl)cc32)cc1)Nc1ccc(Cl)cc1` for me?
OUT: 0.0

IN: Dear all, I need the recorded test outcome for CCOP(=O)(OCC)OC[C@]12CCC(C)(C)CC1C1=CC[C@@H]3[C@@]4(C)CCCNC(C)(C)[C@@H]4CC[C@@]3(C)[C@]1(C)CC2 (stereo partly specified) , thank you.
OUT: 0.0

====

- System: HL-60(TB) leukemia
- measurement_notes: NCI-60 one-dose screen, 48 h
- reported_conditions: 10 µM unless noted
This is part of a sample that, as a whole, favours compounds with a hit. Of some 83,000 tested, about 20% had one in any assay. Active and inactive are the calls of the source. Rule for the calls: active = growth percent below 10; inactive = the rest.
Outcomes you can answer with include only these: 1 (active), 0 (inactive)

Here are 3 molecules together with their reported answers.
O=C(CSc1nc2ccccc2c(=O)n1-c1ccccc1)N/N=C/c1ccc(Oc2ccc(Br)cc2)cc1 | 0
Nc1cc(-c2c[nH]c3ccc(F)cc23)nc2cc(-c3c[nH]c4ccc(F)cc34)nn12 | 1
COc1cccc(N2CCN(c3ncnc4c3[nH]c3ccc(F)cc34)C[C@@H]2C)c1 | 1

IN: Could you check what this test reported for `COc1ccccc1/C=C/C(=O)c1nnn(-c2ccc(C(=O)O)cc2)c1C` ?
OUT: 0

IN: In this assay, the call recorded for COC(=O)c1[nH]nc2c1C1(C(=O)c3cccc4cccc1c34)C(C#N)=C(N)O2 (centres undefined) was what?
OUT: 0

IN: Per the assay record, what outcome was assigned to `CS(=O)(=O)c1nccc(-c2c(-c3cccc(OCc4ccc(Cl)c(C(F)(F)F)c4)c3)nc3sccn23)n1` ?
OUT: 0

IN: Check the results log: what was the call for `O=C(CCCCCCNC(=O)C(O)(O)C(F)(F)F)Nc1ncc(-c2ccccc2)s1` ?
OUT: 0

IN: Returns: the outcome recorded for `O=C(NNc1nc2cc(F)c(F)cc2n2cccc12)c1ccncn1` in this assay.
OUT: 1

IN: # lookup: test call for `O=C(N/N=C/c1ccc([N+](=O)[O-])s1)c1[nH]c2ccc(Br)cc2c1-c1ccccc1`
OUT: 1

====

Catalogue of compounds with associated growth
- Tested on: M14 melanoma
- measurement_notes: NCI-60 one-dose screen, 48 h (100 = growth as untreated, 0 = no growth, -100 = all killed)
- reported_conditions: 10 µM
Compounds without any hit were thinned out: in the full panel of roughly 83,000, 20% have a hit.
Could you give me the number in %? Just the number is fine.

Sample records with growth:
O=C(CCCc1ccc(N(CCCl)CCCl)cc1)OCc1ccccc1 | 95.1
CC(C)=CCc1c2c(c(O)c3c1O[C@]14C(=C[C@@H]5C[C@H]1C(C)(C)O[C@@]4(C/C=C(/C)C(=O)O)C5=O)C3=O)C=CC(C)(C)O2 | -50.1
CC1=C(CN(O)C(N)=O)C2=C(C)C3(CC3)[C@@](C)(O)C(=O)C2=C1 | -63
CC1=C[C@H]2O[C@@H]3C[C@@H](O)[C@](C)([C@@]2(C)CC1)[C@@]31CO1 | 6.68
CC1=C2C(=O)[C@](C)(CO)C=C2C(=O)[C@](C)(O)C12CC2 | 22.3
CC(C)(O)/C=C/C(=O)[C@](C)(O)[C@H]1[C@H](O)C[C@@]2(C)[C@H]3CC=C4[C@@H](C[C@H](O)C(=O)C4(C)C)[C@]3(C)C(=O)C[C@]12C | 17.1
N#Cc1nc(-c2ccccc2)oc1N1CCC(S(=O)(=O)F)CC1 | 106

Let us move to another entry and its growth.
IN: Form field - read-out: growth; system: M14 melanoma; submitted item: C=C1[C@@H](C)C2[C@H](Cc3ccccc3)NC(=O)[C@]23[C@H](OC(C)=O)/C=C/[C@@](C)(O)C(=O)[C@@H](C)C/C=C/[C@H]3[C@@H]1O (stereo partly drawn)
OUT: 51.3
